Where do these numbers come from? They come from the supplement of paper PMC10567573.

B1: TRIB1 (parent)
chain: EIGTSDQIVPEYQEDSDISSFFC

# Variants of: B1
# protocol summary: protein stability index of a GFP-peptide fusion (GPS, HEK-293T) (PSI 1-6); higher = more stable;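 also: lentivirally expressed fusions sorted by FACS into six bins by GFP to DsRed ratio, PSI derived from sequencing read proportions per bin multiplied by bin number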
# experimental setup: c terminus: native
outcome measure: protein stability index

[
  {
    "macromolecule sequence": "EITTSDQIVPEYQEDSDISSFFC [G3T]",
    "outcome measure": "protein stability index",
    "value": 3.01
  },
  {
    "macromolecule sequence": "EIGTSDQIVPEYQEDSDISSFFW [C23W]",
    "outcome measure": "protein stability index",
    "value": 1.95
  },
  {
    "macromolecule sequence": "EIGTSDQIVPEYQEDEDISSFFC [S16E]",
    "outcome measure": "protein stability index",
    "value": 1.75
  },
  {
    "macromolecule sequence": "EIGTSDQIAPEYQEDSDISSFFC [V9A]",
    "outcome measure": "protein stability index",
    "value": 5.16
  },
  {
    "macromolecule sequence": "EIGTSSQIVPEYQEDSDISSFFC [D6S]",
    "outcome measure": "protein stability index",
    "value": 5.45
  },
  {
    "macromolecule sequence": "EIGTSDQIVPEYQEDSDISSTFC [F21T]",
    "outcome measure": "protein stability index",
    "value": 4.78
  },
  {
    "macromolecule sequence": "EIGTQDQIVPEYQEDSDISSFFC [S5Q]",
    "outcome measure": "protein stability index",
    "value": 2.42
  },
  {
    "macromolecule sequence": "EIGTSDQIVPEYQERSDISSFFC [D15R]",
    "outcome measure": "protein stability index",
    "value": 4.24
  },
  {
    "macromolecule sequence": "EIGTSDQIVPEYQEDSDISSFFV [C23V]",
    "outcome measure": "protein stability index",
    "value": 2.77
  }
]
